Values were extracted from PubChem BioAssay (NCATS).

assay: qHTS of pediatric cancer cell lines to identify multiple opportunities for drug repurposing: Confirmatory screen for BT-37 cells (AID 1347117); conditions: BT-37 pediatric cancer cells, viability; series mostly up to 45.9 µM;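 also: viability measured after 48 h of compound exposure; nearly all actives have a fitted effect of over 55% in size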
Records with an inconclusive call do not appear. Active and inactive are the calls of the source. Calls follow the shape of the dose curve; as a rule, active = well fitted cell-killing curve with a large enough effect; inconclusive = small, poorly fitted or top-dose-only effect; inactive = no such curve, though single readings can be large or run the other way.
In this exercise, the only acceptable responses are active, inactive

A selection of reference data follows.
molecule: CC(C)(C)CC(=O)OCC(=O)[C@@]1(O)CC[C@H]2[C@@H]3CCC4=CC(=O)C=C[C@]4(C)[C@H]3[C@@H](O)C[C@@]21C
category: inactive
--
molecule: CCC1(c2cnc[nH]2)Cc2ccccc2C1
category: active
--
molecule: CCCC(=O)O[C@]1(C(=O)COC(=O)CC)CC[C@H]2[C@@H]3CCC4=CC(=O)CC[C@]4(C)[C@H]3[C@@H](O)C[C@@]21C
category: inactive
--
molecule: CC(=O)OCC(=O)[C@@]1(O)[C@H](OC(C)=O)C[C@H]2[C@@H]3CCC4=CC(=O)C=C[C@]4(C)[C@@]3(F)[C@@H](O)C[C@@]21C
category: inactive
--
molecule: Cc1ccc(C(=O)Oc2ccc(C(O)CNC(C)(C)C)cc2OC(=O)c2ccc(C)cc2)cc1 (configuration not stated)
category: inactive
--
molecule: CCN(CC)CC(=O)OCC(=O)[C@@]1(O)CC[C@H]2[C@@H]3CCC4=CC(=O)CC[C@]4(C)[C@H]3[C@@H](O)C[C@@]21C
category: inactive

Field: next molecule
Short answer needed: outcome of this test for CCC(=O)O[C@]1(C(=O)COC)[C@@H](C)C[C@H]2[C@@H]3CCC4=CC(=O)C=C[C@]4(C)C3(F)[C@@H](O)C[C@@]21C (some centres not stated) ?
inactive

====

test system: WaGa; test: qHTS assay to identify novel small-molecules to repurpose for Merkel cell carcinoma treatment (AID 1296009); conditions: MCC and control cell lines, CellTiter-Glo viability, 72 h; series mostly up to 46 µM; also: nearly all actives have a fitted effect of over 60% in size
Inconclusive results are not listed. The source made the active and inactive calls. Calls come from the whole dose curve; as a rule, active = well fitted inhibition curve with a large enough effect; inconclusive = small, poorly fitted or top-dose-only effect; inactive = flat fitted curve, though single readings scatter.
In this exercise, the only acceptable responses are Yes = active, No = inactive

A selection of reference data follows.
compound: CN(C(=O)C(Cl)Cl)c1ccc(OC(=O)c2ccco2)cc1
target under test: WaGa
category: No
--
compound: O=C(NO)c1ccccc1
target under test: WaGa
category: Yes
--
compound: CCCC(=O)OCOC(=O)C1=C(C)NC(C)=C(C(=O)OC)C1c1cccc(Cl)c1Cl (centres undefined)
target under test: WaGa
category: No
--
compound: O=C(c1ccco1)N1CCNCC1
target under test: WaGa
category: No
--
compound: CC(C)=CCC/C(C)=C/CC/C(C)=C/C(=O)OCC(=O)[C@@]1(O)CC[C@H]2[C@@H]3CCC4=CC(=O)C=C[C@]4(C)[C@H]3[C@@H](O)C[C@@]21C
target under test: WaGa
category: No

Short answer needed: outcome of this test for Nc1c(NC/C=C\COc2cc(CN3CCCCC3)ccn2)c(=O)c1=O ?
No

Short answer needed: outcome of this test for O=c1[nH]c(=O)n([C@H]2O[C@H](CO)[C@@H](O)[C@@H]2O)cc1/C=C\Br ?
No

Short answer needed: outcome of this test for CO/N=C(/C(=O)N[C@@H]1C(=O)N2C(C(=O)O)=C(Cn3nnc(C)n3)CS[C@H]12)c1csc(N)n1 ?
No

Short answer needed: outcome of this test for CN(CC1(C)CCCO1)S(=O)(=O)c1ccc(Cl)c(S(N)(=O)=O)c1 (centres undefined) ?
No

Short answer needed: outcome of this test for CC[C@@]1(O)C(=O)OCc2c1cc1n(c2=O)Cc2c-1nc1ccccc1c2/C=N/OC(C)(C)C ?
Yes
